Hello, the source for this data is the supplement of paper PMC9732359, in case you need it.

Test: protein stability index of a GFP-peptide fusion (yeast GPS) (PSI 1-4); higher = more stable; sorted into four equal gates, so the index is relative within each strain
Settings: pdr5∆
Metric: protein stability index

INSERT INTO assay_data (query_sequence, metric, observed_result) VALUES
  ('LSEFGIKKMLHLVWMKG [YCS4]', 'protein stability index', 3.47),
  ('LEKERSILDDIKLSLKD [SMC4]', 'protein stability index', 2.85),
  ('VPPTIAQFQYTLDRNTA [RPL8A]', 'protein stability index', 2.06),
  ('SYLSNSLDTSASTINGA [YML103C/NUP188]', 'protein stability index', 1.78),
  ('EPEEEKSKREEEAKSVL [ARP9]', 'protein stability index', 3.53),
  ('FYLYMLVQKFGGADQVT [SWI1]', 'protein stability index', 1.35);

---

# protein stability index annotations
Assay: protein stability index of a GFP-peptide fusion (yeast GPS) (PSI 1-4); higher = more stable; sorted into four equal gates, so the index is relative within each strain
Settings: doa10∆
Metric: protein stability index

INSERT INTO assay_data (query_sequence, observed_result) VALUES
  ('PSLRDRRERRLIFGTIA [RPT3]', 1.41),
  ('QVIVDIFSVHGNTVVDG [YCG1]', 2.08),
  ('PAKPALSFGTATSDNKT [YJL041W/NSP1]', 3.05),
  ('GGSGNGDDVVNDVQGID [RPP1]', 3.54),
  ('SGSLFGSNNAQTSRGLF [YGL172W/NUP49]', 3.03),
  ('IISTAIADSTHVKRITK [ECM29]', 2.94),
  ('EIEPILMEIHNILKVDS [RGR1]', 1.74),
  ('TSLTSIKWENAFVSVYS [PRP8]', 2.94),
  ('SSDGQLKKFRESLVHSA [BRR2]', 3.41),
  ('LEDPYKYHYKEEWLNTK [CSN9]', 2.88);

---

Assay: protein stability index of a GFP-peptide fusion (yeast GPS) (PSI 1-4); higher = more stable; sorted into four equal gates, so the index is relative within each strain
Settings: doa10∆
# maps each entry to its protein stability index
Metric: protein stability index

INSERT INTO assay_data (query_sequence, observed_result) VALUES
  ('LKFMAASEVATHSKLFA [PRP8]', 2.91),
  ('SRSTDNFHNSKKRMNSN [RRI1]', 2.11),
  ('HQNESSAASIPPQQTYH [RPN4]', 2.57),
  ('SLQYINIRGNTIRQIIL [SMD1]', 3.15),
  ('HRASPADVSIKSILQEI [POP5]', 3.11),
  ('NKIRNLELPLCPYCYKK [SIR2]', 2.52),
  ('NIVDSSAAGNKAIPTFS [YIL149C/MLP2]', 2.31),
  ('VVDFKNKENDNVPSTKF [SNF12]', 3.6),
  ('TEKEPVPAVVDDPLENM [SNF6]', 2.85),
  ('HTEDESTKELKFSDIIQ [BRN1]', 3.11),
  ('ESLRGILHVRAQYCYKN [SRP72]', 1.94),
  ('VLNGQKIVVVRAEALNI [RPL16B]', 2.47),
  ('GVVQMVTDNKTPEMNVT [TAF14]', 2.78),
  ('RRVYNRVLETTLVEFET [BRN1]', 2.21),
  ('AGERKIPHDLNFLQESY [TAF14]', 2.83),
  ('TSLITAVYGPRSIRGSF [MTR3]', 2.72),
  ('DSVENSSNILEDILYYS [SRB8]', 2.92),
  ('IYQVPEKDLEHWLQLAK [POP1]', 3.22),
  ('GFETSKNIKIIMATNRL [RPT6]', 2.87),
  ('VSDSEIIDLNLHSFTKQ [POP6]', 2.72),
  ('FNNQGKLDLFKYFTELS [MED1]', 3.07),
  ('PDISRAVINIRDDGKRE [RPO31]', 2.78),
  ('KFSERRKALPKEPKKLL [DSN1]', 2.33),
  ('KPSFSFPGKPVDVQAPT [YOR098C/NUP1]', 2.72),
  ('PSQSEEQKGQMAKKEGT [MED4]', 3.21),
  ('KNGALVSNILSAFKFIH [YJL039C/NUP192]', 1.71),
  ('NKYANNDFANNLPKEGD [CSL4]', 3.14),
  ('ITGNKIMRILKSNGLAP [RPS13]', 3.01),
  ('PYGSFHQQQLQQPHYIQ [DSN1]', 2.76),
  ('IPNRRFTLWWSPTINRA [PRP8]', 2.65),
  ('NVTIAQGGVLPNIHQNL [HTA1]', 1.65),
  ('ADKKDDSESNSEPIDLI [ITC1]', 3.05),
  ('AIPNGIHLQRFDEGTTL [RPO21]', 2.29),
  ('ATDPVAAKPDNLANFSN [SWP82]', 3.27),
  ('SETDKRQFLHELRRPGV [RPO31]', 1.89),
  ('VHPFHVLRINKMLSCAG [RPL10]', 1.11),
  ('LLMRLEGNYRNLNNLKQ [RPB8]', 3.29),
  ('CRVCSSHTGLIRKYGLN [RPS29A]', 1.5),
  ('LNTVLIADLDTEAEETS [RRP43]', 3.11),
  ('QDPKTLVALLSRDLWCF [SSN2]', 1.39),
  ('MKVEELIIDGFKSYATR [SMC2]', 3.45),
  ('PHNSKSLGFLQQSNKLH [RPN3]', 3.11),
  ('EARAEAINLMGVKNNLL [RPO31]', 3.35),
  ('IYRDRSTFTKHLIKCFF [ITC1]', 2.11),
  ('IGVVSLTNGVTEHVRQN [RRP6]', 3.29),
  ('NNAKLLTFMTCNSLHIP [ESC2]', 1.71),
  ('ENIQEGTSLTIQHIAAA [CDC53]', 2.52),
  ('KAALERLKVFEGIPPPY [RPL16A]', 2.57),
  ('SVILSVISMFVLPIFTT [YML031W/NDC1]', 1.29),
  ('KYKSGGKFSFSPLQKEE [SSN2]', 1.54),
  ('GANDLGFTASVSNQENA [MED1]', 3.06),
  ('YVKAVSDKAQLNVVMKN [SMC4]', 2.1),
  ('SYKMNSSAADITMESVH [PRP8]', 3.32),
  ('LNDEYNYPQLTEDILKE [YCS4]', 2.91),
  ('TSRTIVRNVKGPVREND [RPS28A]', 3.4),
  ('DKYHPGYFGKVGMRYFH [RPL28]', 3.23),
  ('LTLTDSQLAQVAAFVNN [BRR2]', 2.14),
  ('PSKKRRRDFGAPANKRP [SMD1]', 2.57),
  ('GQVSMSQFNGSGNGSNP [PGD1]', 3.3),
  ('YDLNFKLRETLVKIDDL [SMC1]', 3.05);
